Here the recorded LD50 at 168 h is given for each entry.
- Assay Procedure: Acute oral toxicity in male mice, LD50 by Litchfield-Wilcoxon method (Test Example 5)
- Condition Context: mouse, in vivo, mortality on the seventh day
The reply should read as a number followed by its unit.

In the examples that follow, each entry is paired with its recorded LD50 at 168 h.
INSERT INTO measurements (molecule, recorded_endpoint, data_value) VALUES
  ('CCOC(=O)CN(SN(C)C(=O)Oc1cccc2c1OC(C)(C)C2)S(=O)(=O)c1ccc(C)cc1 [Example 48]', 'LD50 at 168 h', '80 mg/kg'),
  ('CCCCCCCCN(CC(=O)OCC)SN(C)C(=O)Oc1cccc2c1OC(C)(C)C2 [Example 17]', 'LD50 at 168 h', '69 mg/kg'),
  ('CCOC(=O)CN(SN(C)C(=O)Oc1cccc2c1OC(C)(C)C2)C(=O)c1ccc(Cl)cc1 [Example 47]', 'LD50 at 168 h', '95 mg/kg'),
  ('CCOC(=O)CN(Cc1ccccc1)SN(C)C(=O)Oc1cccc2c1OC(C)(C)C2 [Example 19]', 'LD50 at 168 h', '108 mg/kg');

For CN(CCC#N)SN(C)C(=O)Oc1cccc2c1OC(C)(C)C2 [Example 37] , what is its reported LD50 at 168 h?
65 mg/kg

Also CCOC(=O)CN(SN(C)C(=O)Oc1cccc2c1OC(C)(C)C2)C(=O)OCC [Example 44] , if possible.
128 mg/kg

Also CNC(=O)Oc1cccc2c1OC(C)(C)C2 [carbofuran] , if possible.
5.6 mg/kg

Also CCOC(=O)CCN(CCC(=O)OCC)SN(C)C(=O)Oc1cccc2c1OC(C)(C)C2 [Example 6] , if possible.
135 mg/kg

Also CCCCN(CCC(=O)OC)SN(C)C(=O)Oc1cccc2c1OC(C)(C)C2 [Example 28] , if possible.
89 mg/kg
